- system-tested: Adenosine receptor A1 (Homo sapiens)
- Sequence (P30542 whole entry): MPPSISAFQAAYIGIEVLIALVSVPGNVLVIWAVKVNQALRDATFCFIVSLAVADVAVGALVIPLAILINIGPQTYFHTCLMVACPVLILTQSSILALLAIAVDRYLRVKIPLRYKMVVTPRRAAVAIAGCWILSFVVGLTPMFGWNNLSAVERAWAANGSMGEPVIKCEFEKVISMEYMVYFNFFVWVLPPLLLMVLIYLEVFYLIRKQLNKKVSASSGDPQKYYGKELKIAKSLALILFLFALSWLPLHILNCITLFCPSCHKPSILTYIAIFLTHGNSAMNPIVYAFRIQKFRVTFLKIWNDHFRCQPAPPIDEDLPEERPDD
- method: Displacement of [3H]DPCPX from human recombinant adenosine A1 receptor expressed in CHOK1 cells
Task for the reader: assign each of the following compounds its reported pKi.
Answers are plain numbers, as −log10 of the molar value.

A selection of reference data follows.
>>> reported_result("O=C(c1ccccc1)c1sc(NCc2cccs2)nc1-c1ccco1")
5.52
>>> reported_result("CN(Cc1ccccc1)c1nc(-c2ccco2)c(C(=O)c2ccccc2)s1")
5.02
>>> reported_result("O=C(c1ccccc1)c1sc(NCCCc2ccccc2)nc1-c1ccco1")
5.20
>>> reported_result("CC(C)CNc1nc(-c2ccco2)c(C(=O)c2ccccc2)s1")
5.89
>>> reported_result("CC(=O)N1CCC(Nc2nc(-c3ccco3)c(C(=O)c3ccccc3)s2)CC1")
5.91
>>> reported_result("CNc1nc(-c2ccco2)c(C(=O)c2ccccc2)s1")
5.45

Each compound below has a reported value. Please supply its pKi.
1. O=C(c1ccccc1)c1sc(NCc2ccco2)nc1-c1ccco1
2. CC(=O)NCCNc1nc(-c2ccco2)c(C(=O)c2ccccc2)s1
3. COCCNc1nc(-c2ccco2)c(C(=O)c2ccccc2)s1

## Result
1: 5.84; 2: 5.62; 3: 5.17
